# Protocol text: DSSTox (CPDBAS) Carcinogenic Potency Database Summary SingleCellCall Results
# Conditions used: animal chronic carcinogenicity bioassays, CPDB summary call
Activity calls are given as the source filed them.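 How the source made its calls: active means a tumor-causing dose value with its tumor site reported for any sex and species group of a rodent or other animal cancer study; inconclusive means only studies judged inadequate by the national testing program; inactive means tested in at least one study, none positive.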
The reply should be one of these categories: active, inactive

Recorded test outcome, item "Cc1cc(O)ccc1O"
inactive

Recorded test outcome, item "Clc1nc(Cl)nc(Nc2ccccc2Cl)n1"
inactive

Recorded test outcome, item "CC(=O)Nc1ccc2c(c1)Cc1cc(NC(C)=O)ccc1-2"
inactive

Recorded test outcome, item CCOc1nc2cccc(C(=O)OC(C)OC(=O)OC3CCCCC3)c2n1Cc1ccc(-c2ccccc2-c2nn[nH]n2)cc1 (stereo not drawn)
inactive

Recorded test outcome, item "O=[N+]([O-])c1ccccc1"
active

Recorded test outcome, item "ClCc1ccccc1"
active

Recorded test outcome, item "O=C(O)c1cc(=O)[nH]c(=O)[nH]1"
inactive

Recorded test outcome, item CCOC(=O)CC(SP(=O)(OC)OC)C(=O)OCC (stereo not drawn)
inactive

Recorded test outcome, item CC(Oc1cc(Cl)c(Cl)cc1Cl)C(=O)O (stereo not drawn)
inactive

Recorded test outcome, item "O=C/C(Cl)=C(/Cl)C(=O)O"
inactive

Recorded test outcome, item "O=C(O)CC(O)(CC(=O)O)C(=O)O"
inactive

Recorded test outcome, item "C=CCN=C=S"
active

Recorded test outcome, item C=CC(OC(C)=O)c1ccc2c(c1)OCO2 (stereo not drawn)
active

Recorded test outcome, item "CN(N=O)c1ncnc2c1ncn2[C@@H]1O[C@H](CO)[C@@H](O)[C@H]1O"
active

Recorded test outcome, item "Nc1ccc(Cl)cc1N"
active

Recorded test outcome, item c1ccc(C2CO2)cc1 (stereo not drawn)
active

Recorded test outcome, item "C[C@H](CCC(=O)O)[C@H]1CC[C@H]2[C@@H]3[C@H](O)C[C@@H]4C[C@H](O)CC[C@]4(C)[C@H]3CC[C@]12C"
inactive

Recorded test outcome, item "C[N+](=O)[O-]"
active

Recorded test outcome, item "O=S(=O)(Oc1ccc(Cl)cc1)c1ccc(Cl)cc1"
inactive

Recorded test outcome, item "CN(C)c1ccc(C(=O)c2ccc(N(C)C)cc2)cc1"
active

Recorded test outcome, item "O=CCCCC=O"
inactive

Recorded test outcome, item "F"
inactive

Recorded test outcome, item "Nc1ccc2ccccc2c1"
active

Recorded test outcome, item "Nc1nc(N)c2nc(-c3ccccc3)c(N)nc2n1"
active

Recorded test outcome, item Cc1cc(O)c2c(c1O)C(=O)C13C(=C2O)C(=O)C2C(O)C1C1C(O)C3C(=O)C3=C(O)c4c(O)cc(C)c(O)c4C(=O)C321 (stereo not drawn)
active

Recorded test outcome, item "Cc1ccc(C)c(OCCCC(C)(C)C(=O)O)c1"
active

Recorded test outcome, item "O.[Cd+2].[Cl-].[Cl-]"
inactive

Recorded test outcome, item "CNNC"
active
